tested on: NCI-H358; assay: relative viability (nuclei count vs DMSO), 5 days (fraction); higher = more cells survive; settings: first compound 4 µM
Assign relative viability to each entry below.
Kindly provide the number alone.

Recorded relative viability of Cc1sc2c(c1C)C(c1ccc(Cl)cc1)=N[C@@H](CC(=O)OC(C)(C)C)c1nnc(C)n1-2 [JQ1] + O=C(CCCCCCC(=O)Nc1ccccc1)NO [Vorinostat] (partner 1 µM) , please.
0.134

Recorded relative viability of Cc1sc2c(c1C)C(c1ccc(Cl)cc1)=N[C@@H](CC(=O)OC(C)(C)C)c1nnc(C)n1-2 [JQ1] + CC(=O)Nc1cccc(-n2c(=O)n(C3CC3)c(=O)c3c(Nc4ccc(I)cc4F)n(C)c(=O)c(C)c32)c1 [Trametinib] (partner 0.02 µM) , please.
0.127

Recorded relative viability of Cc1sc2c(c1C)C(c1ccc(Cl)cc1)=N[C@@H](CC(=O)OC(C)(C)C)c1nnc(C)n1-2 [JQ1] + Nc1ncn([C@H]2C[C@H](O)[C@@H](CO)O2)c(=O)n1 [Decitabine] (partner 2 µM) , please.
0.206

Origin of the recorded values: the supplement of paper PMC10307832
